# tgt: Muscarinic acetylcholine receptor
# test method notes: In vitro ability to displace [3H]oxotremorine-M (OXO-M) from rat cerebral cortex muscarinic receptor.
# Type: tissue-based
Returns: string. Value is 1.0 if measured IC50 is below 20 nM, and 0.0 if it is greater than or equal to it.

Incoming: Threshold test, IC50 < 20 nM: Cc1nnn(C23CCCN(CC2)C3)n1 (centres undefined)
Outgoing: 1.0

Incoming: Threshold test, IC50 < 20 nM: `Nc1ncn([C@H]2CN3CC[C@H]2C3)n1`
Outgoing: 1.0

Incoming: Threshold test, IC50 < 20 nM: `c1ncn(C23CCN(CC2)C3)n1`
Outgoing: 0.0

Incoming: Threshold test, IC50 < 20 nM: `Cn1nnc([C@@H]2CN3CC[C@H]2C3)n1`
Outgoing: 0.0

Incoming: Threshold test, IC50 < 20 nM: `Cn1nnc([C@H]2CN3CC[C@H]2C3)n1`
Outgoing: 1.0

Incoming: Threshold test, IC50 < 20 nM: `Cc1ncn(C23CCN(CC2)C3)n1`
Outgoing: 0.0

Incoming: Threshold test, IC50 < 20 nM: `Cc1ncn([C@H]2CN3CC[C@H]2C3)n1`
Outgoing: 1.0

Incoming: Threshold test, IC50 < 20 nM: Cn1ncc(C23CCCN(CC2)C3)n1 (centres undefined)
Outgoing: 1.0

Incoming: Threshold test, IC50 < 20 nM: Cn1nnc(C23CCCN(CC2)C3)n1 (centres undefined)
Outgoing: 0.0

Incoming: Threshold test, IC50 < 20 nM: Nc1nnn(C2CN3CCC2CC3)n1 (centres undefined)
Outgoing: 0.0

Incoming: Threshold test, IC50 < 20 nM: c1nnn(C23CCCN(CC2)C3)n1 (centres undefined)
Outgoing: 1.0

Incoming: Threshold test, IC50 < 20 nM: Nc1nnn(C23CCCN(CC2)C3)n1 (centres undefined)
Outgoing: 1.0

Incoming: Threshold test, IC50 < 20 nM: c1ncn(C23CCCN(CC2)C3)n1 (centres undefined)
Outgoing: 1.0

Incoming: Threshold test, IC50 < 20 nM: `O=[N+]([O-])c1ncn([C@H]2CN3CC[C@H]2C3)n1`
Outgoing: 0.0

---

# tgt: Muscarinic acetylcholine receptor
# test method notes: In vitro ability to displace [3H]oxotremorine-M (OXO-M) from rat cerebral cortex muscarinic receptor.
# Assay type: tissue-based
Exercise: state measured log10 IC50 for each of the compounds provided.
Reminder: these figures are log10 of reported IC50, in nM before transformation.

The recorded log10 IC50 for entry `Nc1nnn([C@H]2CN3CC[C@H]2C3)n1` equals 0.41

The recorded log10 IC50 for entry `Cn1ncc([C@H]2CN3CC[C@H]2C3)n1` equals 0.73

The recorded log10 IC50 for entry Cc1ncn(C23CCCN(CC2)C3)n1 (stereo unspecified) equals 1.08

The recorded log10 IC50 for entry `Cc1nnn([C@H]2CN3CC[C@H]2C3)n1` equals 0.62

The recorded log10 IC50 for entry `Cn1ncc(C23CCN(CC2)C3)n1` equals 1.54

The recorded log10 IC50 for entry N#Cc1nnn(C2CN3CCC2CC3)n1 (stereo unspecified) equals 3.15

---

Exercise: state measured IC50 for each of the compounds provided.
# tgt: Muscarinic acetylcholine receptor
# test method notes: In vitro ability to displace [3H]oxotremorine-M (OXO-M) from rat cerebral cortex muscarinic receptor.
# Type: tissue-based

The recorded IC50 for entry `c1ncn([C@H]2CN3CC[C@H]2C3)n1` equals 79 nM

The recorded IC50 for entry `c1nnn([C@H]2CN3CC[C@H]2C3)n1` equals 30 nM

The recorded IC50 for entry Cc1nnn(C2CN3CCC2CC3)n1 (configuration not stated) equals 31 nM

The recorded IC50 for entry `Cn1nnc(C23CCN(CC2)C3)n1` equals 250 nM

The recorded IC50 for entry `Cn1ncc([C@@H]2CN3CC[C@H]2C3)n1` equals 16 nM

The recorded IC50 for entry OC(c1ccccc1)(c1ccccc1)c1nnn(C2CN3CCC2CC3)n1 (configuration not stated) equals 3.6 nM

The recorded IC50 for entry Nc1ncn(C23CCCN(CC2)C3)n1 (configuration not stated) equals 13 nM
